B1: library; a variant is named by its letters at N, in order (parent)
chain: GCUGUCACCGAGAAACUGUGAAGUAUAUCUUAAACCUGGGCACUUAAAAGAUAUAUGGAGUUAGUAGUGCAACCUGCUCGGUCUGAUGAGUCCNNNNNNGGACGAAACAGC

# Variants of: B1
# ASSAY_COMMENT: FACS-Seq fitted mean relative fluorescence mCherry/BFP without ligand (log10 relative fluorescence); HEK293T; ligand: cyclic di-GMP (c-di-GMP-II aptamer); higher = higher reporter protein expression
# RECORDED_CONDITIONS: ligand present: no
EXPERIMENTAL_ENDPOINT: FACS-Seq fitted mean (log10)
// keep it numeric: no unit symbol after the value

Given "UAAGUU" , state its recorded FACS-Seq fitted mean (log10).
0.0182

Dear colleague, I am looking for the recorded FACS-Seq fitted mean (log10) of the following variant: "CCCAGA"
-0.192

Give the measured FACS-Seq fitted mean (log10) of "AGUAGU" .
0.132

// FACS-Seq fitted mean (log10) lookup, key: "ACUGGA"
-0.72

GET /values?readout=FACS-Seq fitted mean (log10)&item= "GAUAAU"
-0.142

What does the record list as FACS-Seq fitted mean (log10) for "UAUUAA" ?
-0.387

Could you share which FACS-Seq fitted mean (log10) value was measured for "CCGAGC" ?
-0.204

Dear colleague, I am looking for the recorded FACS-Seq fitted mean (log10) of the following variant: "CCGAAG"
-0.589

# get_value(readout='FACS-Seq fitted mean (log10)', item= "GAGCCU" )
-0.783

Entry "CACCUU" has what FACS-Seq fitted mean (log10)?
-0.0716

# FACS-Seq fitted mean (log10) lookup, item "CACUUA"
-0.231

Please look up its FACS-Seq fitted mean (log10): "CCCCAC"
-0.891

Look up FACS-Seq fitted mean (log10) for this variant: "UCAGUG"
-0.446

Need FACS-Seq fitted mean (log10) of "ACCCAC" , thanks.
0.134

Return reported FACS-Seq fitted mean (log10); argument: "UCAAUU"
-0.69

Which FACS-Seq fitted mean (log10) is listed for "AUGUUA" ?
-0.342

Please give the measured FACS-Seq fitted mean (log10) for this variant: "ACAGAU"
-0.584

Fill in: FACS-Seq fitted mean (log10) of "GUGUUA" is ___
-0.147

Endpoint output: FACS-Seq fitted mean (log10) of "AGCGGU" . Value?
-0.189

Quick check: FACS-Seq fitted mean (log10) of "UGUACU" ?
-0.0524

Using the record for "ACCCGC" , report its FACS-Seq fitted mean (log10).
-0.436

Data request, read-out FACS-Seq fitted mean (log10), for "AGAUAA"
-0.905

// returns reported FACS-Seq fitted mean (log10) for input "GUGGAU"
-0.528

Look up FACS-Seq fitted mean (log10): "ACAAGA"
-0.604

Bench note: what FACS-Seq fitted mean (log10) did "ACGUGA" show?
-0.228

Requested field: FACS-Seq fitted mean (log10). Item: "GAUUGA"
0.00942

Reported FACS-Seq fitted mean (log10) for "AUUUAA" : what is it?
-0.437

Find the recorded FACS-Seq fitted mean (log10) belonging to "AAGCAC" and report it.
-0.391

Fill in: FACS-Seq fitted mean (log10) of "CGUGCA" is ___
-0.119

If you can, please state the reported FACS-Seq fitted mean (log10) value of "CAAGUU" .
-0.164

Any idea what FACS-Seq fitted mean (log10) was measured for "AAUUAA" ?
-0.583

Please report the recorded FACS-Seq fitted mean (log10) for "UAAAAG" .
-0.338

What does the record list as FACS-Seq fitted mean (log10) for "CUGUAU" ?
-0.00585

Param item = "AGACGA" ; retrieve measured FACS-Seq fitted mean (log10).
-0.409

For the variant "UCUGCU" , what FACS-Seq fitted mean (log10) is on record?
-0.406

Tell me the measured FACS-Seq fitted mean (log10) of "UUGUUC" , please.
-0.642

Name the recorded FACS-Seq fitted mean (log10) for "CGGCUU" .
-0.717

What value of measured FACS-Seq fitted mean (log10) is listed for "GUGGAC" ?
-0.519
